test: siRNA/mRNA encapsulation rate by Ribogreen reagent (section IV); assay type: physicochemical; settings: FlucmRNA-loaded LNP, 50:10:38.5:1.5
measured_endpoint: % mRNA encapsulation (%)

- compound: "CCCCCCC(CCCCCC)C(=O)OCCCCCCC(O)(CCCCCCOC(=O)C(CCCCCC)CCCCCC)CCCCOC(=O)C1CCN(C)CC1 [CL15F 8-6]"
  test_result: 99.2
- compound: "CCCCCC(CCC)C(=O)OCCCCCCC(O)(CCCCCCOC(=O)C(CCC)CCCCC)CCCCN(CCC)CCC (stereo not shown) [CL4F 7-3]"
  test_result: 98.1
- compound: "CCCCCCCCCC(CCCCCC)C(=O)OCCCCCCC(O)(CCCCCCOC(=O)C(CCCCCC)CCCCCCCCC)CCCCOC(=O)C1CCN(C)CC1 (stereo not shown) [CL15F 11-6]"
  test_result: 99.75
- compound: "CCCCCCCCC(CCCC)C(=O)OCCCCCCC(O)(CCCCCCOC(=O)C(CCCC)CCCCCCCC)CCCCN(CCC)CCC (stereo not shown) [CL4F 10-4]"
  test_result: 99.8

====

Listed here are compounds together with their documented % mRNA encapsulation.
assay: Nucleic acid encapsulation rate by Ribogreen (section II); format: physicochemical; conditions: NlucmRNA-loaded LNP, 60:10:40:1

- compound: "CCCCCCCC/C=C\\CCCCCCCC(=O)OCCCCCCC(O)(CCCCCCOC(=O)CCCCCCC/C=C\\CCCCCCCC)CCCCN(CCC)CCC [CL4H6, reference compound]"
  % mRNA encapsulation [%]: 77.6
- compound: "CC(CCC(C(=O)OCCCCCCC(O)(CCCCCCOC(=O)C(CCC(C)CC(C)(C)C)C(C)CC(C)(C)C)CCCCOC(=O)C1CCN(C)CC1)C(C)CC(C)(C)C)CC(C)(C)C (stereo not drawn)"
  % mRNA encapsulation [%]: 91.8
- compound: "CCCCCCCC/C=C\\CCCCCCCC(=O)OCCCCCCC(O)(CCCCCCOC(=O)CCCCCCC/C=C\\CCCCCCCC)CCCCOC(=O)C1CCN(C)CC1 [CL15H6, reference compound]"
  % mRNA encapsulation [%]: 90.5
- compound: "CCCN(CCC)CCCCC(O)(CCCCCCOC(=O)C(CCC(C)CC(C)(C)C)C(C)CC(C)(C)C)CCCCCCOC(=O)C(CCC(C)CC(C)(C)C)C(C)CC(C)(C)C (stereo not drawn)"
  % mRNA encapsulation [%]: 91.7
- compound: "CCCCCCCCC(CCCCCC)C(=O)OCCCCCCC(O)(CCCCCCOC(=O)C(CCCCCC)CCCCCCCC)CCCCOC(=O)C1CCN(C)CC1 (stereo not drawn)"
  % mRNA encapsulation [%]: 90.3
- compound: "CCCCCCCCC(CCCCCC)C(=O)OCCCCCCC(O)(CCCCCCOC(=O)C(CCCCCC)CCCCCCCC)CCCCN(CCC)CCC (stereo not drawn)"
  % mRNA encapsulation [%]: 90

====

The entries below are paired with their reported % siRNA encapsulation.
experiment: siRNA/mRNA encapsulation rate by Ribogreen reagent (section IV); assay type: physicochemical; settings: F7siRNA-loaded LNP, 50:10:38.5:1.5, N/P ratio 6

- compound: "CCCCCCCCCC(CCCCCCC)C(=O)OCCCCCCC(O)(CCCCCCOC(=O)C(CCCCCCC)CCCCCCCCC)CCCCOC(=O)C1CCN(C)CC1 (stereo not shown) [CL15F 11-7]"
  value_units: "%"
  % siRNA encapsulation: 100.6
- compound: "CCCCCCCCC(CC)C(=O)OCCCCCCC(O)(CCCCCCOC(=O)C(CC)CCCCCCCC)CCCCN(CCC)CCC (stereo not shown) [CL4F 10-2]"
  value_units: "%"
  % siRNA encapsulation: 99.6
- compound: "CCCCCCC(CCCCCC)C(=O)OCCCCCCC(O)(CCCCCCOC(=O)C(CCCCCC)CCCCCC)CCCCOC(=O)C1CCN(C)CC1 [CL15F 8-6]"
  value_units: "%"
  % siRNA encapsulation: 100.2
- compound: "CCCCCCCCC(CCCCC)C(=O)OCCCCCCC(O)(CCCCCCOC(=O)C(CCCCC)CCCCCCCC)CCCCOC(=O)C1CCN(C)CC1 (stereo not shown) [CL15F 10-5]"
  value_units: "%"
  % siRNA encapsulation: 100.5
- compound: "CCCCCCCCCC(CCCCC)C(=O)OCCCCCCC(O)(CCCCCCOC(=O)C(CCCCC)CCCCCCCCC)CCCCN(CCC)CCC (stereo not shown) [CL4F 11-5]"
  value_units: "%"
  % siRNA encapsulation: 100.1
- compound: "CCCCCCCCC(CCCCCCCC)C(=O)OCCCCCCC(O)(CCCCCCOC(=O)C(CCCCCCCC)CCCCCCCC)CCCCOC(=O)C1CCN(C)CC1 [CL15F 10-8]"
  value_units: "%"
  % siRNA encapsulation: 100.6
- compound: "CCCCCCC(CCCCCC)C(=O)OCCCCCCC(O)(CCCCCCOC(=O)C(CCCCCC)CCCCCC)CCCCN(CCC)CCC [CL4F 8-6]"
  value_units: "%"
  % siRNA encapsulation: 100.0
- compound: "CCCN(CCC)CCCCC(O)(CCCCCCOC(=O)C(CCC(C)CC(C)(C)C)C(C)CC(C)(C)C)CCCCCCOC(=O)C(CCC(C)CC(C)(C)C)C(C)CC(C)(C)C (stereo not shown) [CL4G6]"
  value_units: "%"
  % siRNA encapsulation: 100.1
- compound: "CCCCCCCCCCCC(CCC)C(=O)OCCCCCCC(O)(CCCCCCOC(=O)C(CCC)CCCCCCCCCCC)CCCCN(CCC)CCC (stereo not shown) [CL4F 13-3]"
  value_units: "%"
  % siRNA encapsulation: 99.7
- compound: "CCCCCCCCCC(CCCCCC)C(=O)OCCCCCCC(O)(CCCCCCOC(=O)C(CCCCCC)CCCCCCCCC)CCCCOC(=O)C1CCN(C)CC1 (stereo not shown) [CL15F 11-6]"
  value_units: "%"
  % siRNA encapsulation: 100.3
- compound: "CCCCCCCC(CCC)C(=O)OCCCCCCC(O)(CCCCCCOC(=O)C(CCC)CCCCCCC)CCCCOC(=O)C1CCN(C)CC1 (stereo not shown) [CL15F 9-3]"
  value_units: "%"
  % siRNA encapsulation: 98.3
- compound: "CCCCCCCCCCCCCCC(C)C(=O)OCCCCCCC(O)(CCCCCCOC(=O)C(C)CCCCCCCCCCCCCC)CCCCOC(=O)C1CCN(C)CC1 (stereo not shown) [CL15F 16-1]"
  value_units: "%"
  % siRNA encapsulation: 99.0
- compound: "CCCCCCCCCCC(CCCC)C(=O)OCCCCCCC(O)(CCCCCCOC(=O)C(CCCC)CCCCCCCCCC)CCCCOC(=O)C1CCN(C)CC1 (stereo not shown) [CL15F 12-4]"
  value_units: "%"
  % siRNA encapsulation: 100.2
